- Assay Context: 303.15 K; 10000 kPa; Liquid
We begin with a simple list: items and their reported mass density.
A number alone suffices; assume kg/m3.

I'd like to know its mass density. The compound in question is CCOC(C)=O [ethyl acetate]
897.5

Do the same for CCCOC(C)=O [propyl ethanoate] please
885.3

Do the same for CCCCOC(C)=O [butyl ethanoate] please
878.8

Do the same for CCCCCOC(C)=O [pentyl ethanoate] please
874.4

----------
- Assay Context: 308.15 K; 10000 kPa; Liquid
Measure Name: mass density (kg/m3)
A number alone suffices; assume kg/m3.

Study these solved cases before continuing.
INSERT INTO results (molecule, uom, readout_number) VALUES
  ('CCOC(C)=O [ethyl acetate]', 'kg/m3', 891.7),
  ('CCCCOC(C)=O [butyl ethanoate]', 'kg/m3', 873.9),
  ('CCCCCOC(C)=O [pentyl ethanoate]', 'kg/m3', 869.8);

I'd like to know its mass density. The molecule in question is CCCOC(C)=O [propyl ethanoate]
879.9

----------
- Assay Context: 308.15 K; 5000 kPa; Liquid
We begin with a simple list: items and their reported mass density.
A number alone suffices; assume kg/m3.

Study these solved cases before continuing.
INSERT INTO assay_data (molecule, measure_name, readout_number) VALUES
  ('CCOC(C)=O [ethyl acetate]', 'mass density', 886.7),
  ('CCCCCOC(C)=O [pentyl ethanoate]', 'mass density', 865.8),
  ('CCCOC(C)=O [propyl ethanoate]', 'mass density', 875.3);

Now look at this one.
I'd like to know its mass density. The molecule in question is CCCCOC(C)=O [butyl ethanoate]
869.6

----------
- Assay Context: 303.15 K; 100 kPa; Liquid
± gives the expanded uncertainty stated by the source.
Measure Name: mass density

Study these solved cases before continuing.
INSERT INTO assay_data (molecule, measure_name, result) VALUES
  ('CCCOC(C)=O [propyl ethanoate]', 'mass density', '876.2 ± 3.3 kg/m3'),
  ('CCOC(C)=O [ethyl acetate]', 'mass density', '887.6 ± 3.1 kg/m3'),
  ('CCCCCOC(C)=O [pentyl ethanoate]', 'mass density', '866.5 ± 3.3 kg/m3');

Now look at this one.
I'd like to know its mass density. The molecule in question is CCCCOC(C)=O [butyl ethanoate]
870.4 ± 3.1 kg/m3

----------
- Assay Context: 363.15 K; 20000 kPa; Liquid
We begin with a simple list: items and their reported mass density.
A number alone suffices; assume kg/m3.

INSERT INTO measurements (molecule, readout_number) VALUES
  ('CCOC(C)=O [ethyl acetate]', 839.7),
  ('CCCOC(C)=O [propyl ethanoate]', 832.1),
  ('CCCCOC(C)=O [butyl ethanoate]', 830.4);

Now look at this one.
I'd like to know its mass density. The molecule in question is CCCCCOC(C)=O [pentyl ethanoate]
828.3

----------
- Assay Context: 348.15 K; 3000 kPa; Liquid
± gives the expanded uncertainty stated by the source.
Measure Name: mass density

I'd like to know its mass density. The compound in question is CCCOC(C)=O [propyl ethanoate]
829.5 ± 3.7 kg/m3

Do the same for CCCCCOC(C)=O [pentyl ethanoate] please
826.9 ± 3.7 kg/m3

Do the same for CCCCOC(C)=O [butyl ethanoate] please
827.9 ± 3.5 kg/m3

Do the same for CCOC(C)=O [ethyl acetate] please
833.8 ± 3.5 kg/m3

----------
- Assay Context: 373.15 K; 3000 kPa; Liquid
We begin with a simple list: items and their reported mass density.
A number alone suffices; assume kg/m3.

INSERT INTO assay_data (compound, readout_number) VALUES
  ('CCCOC(C)=O [propyl ethanoate]', 798.9),
  ('CCCCCOC(C)=O [pentyl ethanoate]', 799),
  ('CCCCOC(C)=O [butyl ethanoate]', 800.2);

Now look at this one.
I'd like to know its mass density. The compound in question is CCOC(C)=O [ethyl acetate]
802.4

----------
- Assay Context: 348.15 K; 100 kPa; Liquid
Measure Name: mass density (kg/m3)
A number alone suffices; assume kg/m3.

INSERT INTO measurements (compound, readout_number) VALUES
  ('CCCCOC(C)=O [butyl ethanoate]', 824.4),
  ('CCCCCOC(C)=O [pentyl ethanoate]', 823.2),
  ('CCOC(C)=O [ethyl acetate]', 829.4);

I'd like to know its mass density. The compound in question is CCCOC(C)=O [propyl ethanoate]
825.6

----------
- Assay Context: 368.15 K; 15000 kPa; Liquid
Measure Name: mass density (kg/m3)
A number alone suffices; assume kg/m3.

Study these solved cases before continuing.
INSERT INTO results (compound, uom, readout_number) VALUES
  ('CCCOC(C)=O [propyl ethanoate]', 'kg/m3', 821.2),
  ('CCCCCOC(C)=O [pentyl ethanoate]', 'kg/m3', 818.8);

I'd like to know its mass density. The compound in question is CCOC(C)=O [ethyl acetate]
827.5

Do the same for CCCCOC(C)=O [butyl ethanoate] please
820.3

----------
- Assay Context: 333.15 K; 2000 kPa; Liquid
We begin with a simple list: items and their reported mass density.
A number alone suffices; assume kg/m3.

INSERT INTO measurements (molecule, readout_number) VALUES
  ('CCOC(C)=O [ethyl acetate]', 853),
  ('CCCCCOC(C)=O [pentyl ethanoate]', 839.8),
  ('CCCOC(C)=O [propyl ethanoate]', 844.8);

Now look at this one.
I'd like to know its mass density. The molecule in question is CCCCOC(C)=O [butyl ethanoate]
841.8

----------
We begin with a simple list: items and their reported mass density.
- Assay Context: 348.15 K; 25000 kPa; Liquid
A number alone suffices; assume kg/m3.

Study these solved cases before continuing.
INSERT INTO measurements (compound, readout_number) VALUES
  ('CCOC(C)=O [ethyl acetate]', 863.5),
  ('CCCCCOC(C)=O [pentyl ethanoate]', 847.9);

I'd like to know its mass density. The compound in question is CCCCOC(C)=O [butyl ethanoate]
850.9

Do the same for CCCOC(C)=O [propyl ethanoate] please
854.5

----------
- Assay Context: 373.15 K; 1000 kPa; Liquid
Measure Name: mass density (kg/m3)
A number alone suffices; assume kg/m3.

Study these solved cases before continuing.
INSERT INTO results (compound, readout_number) VALUES
  ('CCCCCOC(C)=O [pentyl ethanoate]', 796.4),
  ('CCCCOC(C)=O [butyl ethanoate]', 797.2),
  ('CCCOC(C)=O [propyl ethanoate]', 795.5);

Now look at this one.
I'd like to know its mass density. The compound in question is CCOC(C)=O [ethyl acetate]
798.5

----------
- Assay Context: 353.15 K; 3000 kPa; Liquid
Measure Name: mass density (kg/m3)
A number alone suffices; assume kg/m3.

INSERT INTO measurements (molecule, measure_name, uom, readout_number) VALUES
  ('CCCOC(C)=O [propyl ethanoate]', 'mass density', 'kg/m3', 824),
  ('CCOC(C)=O [ethyl acetate]', 'mass density', 'kg/m3', 827.5),
  ('CCCCCOC(C)=O [pentyl ethanoate]', 'mass density', 'kg/m3', 822.3);

Now look at this one.
I'd like to know its mass density. The molecule in question is CCCCOC(C)=O [butyl ethanoate]
822.9

----------
We begin with a simple list: items and their reported mass density.
- Assay Context: 313.15 K; 15000 kPa; Liquid
Numbers after ± are expanded uncertainties.

INSERT INTO assay_data (compound, result) VALUES
  ('CCCCOC(C)=O [butyl ethanoate]', '873.2 ± 4.9 kg/m3'),
  ('CCOC(C)=O [ethyl acetate]', '890.7 ± 4.9 kg/m3'),
  ('CCCOC(C)=O [propyl ethanoate]', '879.2 ± 5.1 kg/m3');

Now look at this one.
I'd like to know its mass density. The compound in question is CCCCCOC(C)=O [pentyl ethanoate]
869 ± 5.1 kg/m3

----------
- Assay Context: 328.15 K; 30000 kPa; Liquid
We begin with a simple list: items and their reported mass density.
A number alone suffices; assume kg/m3.

I'd like to know its mass density. The compound in question is CCCCOC(C)=O [butyl ethanoate]
872.5

Do the same for CCCCCOC(C)=O [pentyl ethanoate] please
869

Do the same for CCCOC(C)=O [propyl ethanoate] please
878.8

Do the same for CCOC(C)=O [ethyl acetate] please
890.1

----------
- Assay Context: 308.15 K; 15000 kPa; Liquid
We begin with a simple list: items and their reported mass density.
A number alone suffices; assume kg/m3.

Study these solved cases before continuing.
INSERT INTO measurements (molecule, measure_name, uom, readout_number) VALUES
  ('CCOC(C)=O [ethyl acetate]', 'mass density', 'kg/m3', 896.4),
  ('CCCCCOC(C)=O [pentyl ethanoate]', 'mass density', 'kg/m3', 873.6),
  ('CCCCOC(C)=O [butyl ethanoate]', 'mass density', 'kg/m3', 878);

Now look at this one.
I'd like to know its mass density. The molecule in question is CCCOC(C)=O [propyl ethanoate]
884.3
